System: RXF 393
Measurement notes: NCI tumour cell line growth inhibition, 48 h
Active and inactive are the calls of the source. Rule as the data show it: active = GI50 up to about 1.1 µM and inactive = higher.
Readout name: GI50

CCOC(=O)NC(Nc1ccc(OC(F)(F)F)cc1)(C(F)(F)F)C(F)(F)F; > 100 µM (inactive)

Quick one: give me GI50 for each item below, same order please.
1. CCCCCCCCCCCCCCCCOCC(Cl)COP(=O)(O)OP(=O)(O)OCC1OC(n2cc(C)c(=O)[nH]c2=O)CC1O (stereo not given)
2. CC(=O)OCCN1c2ccccc2Sc2cnccc21
3. CSc1ccc(C2OC(=O)c3ccccc32)c2ccccc12 (stereo not given)
4. Cc1c(N2C(=O)/C(=C/C=C/c3ccccc3)N=C2c2ccccc2)c(=O)n(-c2ccccc2)n1C

1. > 100 µM (inactive)
2. > 10 µM (inactive)
3. > 100 µM (inactive)
4. 17.9 µM (inactive)
